Where do the numbers come from? From PubChem BioAssay (NCI).

assay: NCI Yeast Anticancer Drug Screen. Data for the mlh1 rad18 strain (AID 175); settings: S. cerevisiae mlh1 rad18 strain growth inhibition; at 50.0 µM; stronger effect = higher value
About 79,000 compounds went through this panel and 15% of them were active in at least one assay; those are over-represented in the sample as a whole.
Overview of reported growth inhibition across a group of compounds:
Write down the numeric answer in % and omit the unit.

Examples with answers:
COc1ccc(C(c2ccc(C(C)C)cc(OC)c2=O)c2ccc(C(C)C)cc(OC)c2=O)cc1	29.2
CC(=O)CC1(O)C(=O)Nc2ccc(Br)cc21 (stereo unspecified)	5.25

Query: Sample Cc1ccc(O)c(Cc2cccc(Cl)c2)c1 — what was its growth inhibition?
Reply: 99.2

Query: Could you tell me which growth inhibition is on file for CC(=O)N(C)C1=C(Sc2ccc(C)cc2)C(=O)c2ccccc2C1=O ?
Reply: 99.7

Query: Would you mind telling me what growth inhibition value was observed for CSCCC(NC(=O)C(CCSC)NS(=O)(=O)Cc1ccccc1)C(=O)O (stereo unspecified) ?
Reply: 99.2

Query: Please look up its growth inhibition: CCCCCCC/C=C/C(=O)OC1C(OC2C(OC(CCCCCCC)CC(=O)OC(CCCCCCC)CC(=O)O)OC(C)C(O)C2O)OC(C)C(O)C1O (stereo unspecified)
Reply: 89.5
